measurement target: Rabbit IgG
protocol description: yeast display titration; KD, yeast

binder	unit of measure	Kd
KFWATVHSVHGYFEVPVYAETLDEALELAFGQYGNALGYVTRVRP (designed binder) [Rabbit IgG 3.2.3]	nM	1.5
